test_target: D(2) dopamine receptor (Rattus norvegicus)
assay_name: Binding affinity against Dopamine receptor D2 in rat striatal membrane using [3H]spiroperidol as radioligand
Format: cell membranes, Striatum
quantity_name: IC50 (µM)
Only the number, expressed in µM, is required.

Observed IC50 on D(2) dopamine receptor (Rattus norvegicus), entry COc1cccc2c1CCCC2NCCN1CCN(c2ccccc2)CC1 (configuration not stated) , equals 1.2

Observed IC50 on D(2) dopamine receptor (Rattus norvegicus), entry COc1cccc2c1CCCC2C(=O)N(C)CCCN1CCN(c2ccccc2)CC1 (configuration not stated) , equals 0.594

* * *

test_target: D(2) dopamine receptor (Rattus norvegicus, UniProt P61169)
Sequence (P61169 whole entry): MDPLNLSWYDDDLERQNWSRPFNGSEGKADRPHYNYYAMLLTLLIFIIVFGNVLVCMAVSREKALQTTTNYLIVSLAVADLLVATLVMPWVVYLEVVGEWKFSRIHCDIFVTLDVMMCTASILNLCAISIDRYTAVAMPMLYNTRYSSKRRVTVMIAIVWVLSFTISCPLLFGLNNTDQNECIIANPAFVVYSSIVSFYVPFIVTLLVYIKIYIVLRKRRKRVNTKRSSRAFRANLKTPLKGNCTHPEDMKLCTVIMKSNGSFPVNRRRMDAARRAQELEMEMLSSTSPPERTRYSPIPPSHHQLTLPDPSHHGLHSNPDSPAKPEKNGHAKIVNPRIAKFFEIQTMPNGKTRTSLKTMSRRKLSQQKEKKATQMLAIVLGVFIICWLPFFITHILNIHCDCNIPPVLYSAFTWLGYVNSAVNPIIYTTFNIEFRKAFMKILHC
assay_name: Binding affinity against Dopamine receptor D2 in rat striatal membrane using [3H]spiroperidol as radioligand
Format: cell membranes, Striatum
The entries below come with measured pIC50 values attached.
For clarity, pIC50 is expressed as the negative log10 of concentration in mol/L.

Observed pIC50 on D(2) dopamine receptor (Rattus norvegicus, UniProt P61169), entry COc1cccc2c1CCCC2NCCCN1CCN(c2ccccc2)CC1 (stereo not given) , equals 5.67
